All figures here come from ChEMBL document CHEMBL1155111.

test: Tmax in Beagle dog at 30 mg/kg, po; assay type: ADME, organism-based, Canis lupus familiaris; set-up: dose 30 mg/kg, route oral; conditions: in vivo
quantity name: Tmax

>>> result("c1ccc2oc(Oc3ccc(OCCN4CCCCC4)cc3)nc2c1")
"2.3 h"

* * *

test: Terminal elimination half life in rat plasma at 30 mg/kg, po; assay type: ADME, organism-based; set-up: dose 30 mg/kg, route oral
quantity name: half-life

>>> result("c1ccc2oc(Oc3ccc(OCCN4CCCCC4)cc3)nc2c1")
"5.2 h"

* * *

assay: Tmax in Beagle dog at 10 mg/kg, po; format: ADME, organism-based, Canis lupus familiaris; set-up: dose 10 mg/kg, route oral; settings: in vivo
quantity name: Tmax (h)

>>> measured_number("O=C(CO)NC1CCN(Cc2ccc(Oc3nc4ccccc4s3)cc2)CC1")
1

* * *

assay: Bioavailability in Beagle dog at 30 mg/kg, po; format: ADME, organism-based, Canis lupus familiaris; conditions: in vivo
quantity name: bioavailability

>>> result("c1ccc2oc(Oc3ccc(OCCN4CCCCC4)cc3)nc2c1")
"11%"

* * *

experiment: Cmax in rat at 2 mg/kg, iv; type: ADME, organism-based; parameters: dose 2 mg/kg, route intravenous; details: in vivo
quantity name: Cmax (nM)

>>> measured_number("O=C(CO)NC1CCN(Cc2ccc(Oc3nc4ccccc4s3)cc2)CC1")
2200

* * *

test: AUC (0 to infinity) in rat at 3 mg/kg, iv; assay type: ADME, organism-based; set-up: time infinity, dose 3 mg/kg, route intravenous; details: plasma
quantity name: AUC(0-inf) (µM·h)

>>> measured_number("c1ccc2oc(Oc3ccc(OCCN4CCCCC4)cc3)nc2c1")
4.8

* * *

test: Cmax in rat at 3 mg/kg, iv; format: ADME, organism-based; set-up: dose 3 mg/kg, route intravenous; details: in vivo
quantity name: Cmax

>>> result("c1ccc2oc(Oc3ccc(OCCN4CCCCC4)cc3)nc2c1")
"3.8 µM"

* * *

assay: AUC (0 to infinity) in Beagle dog at 30 mg/kg, po; format: ADME, organism-based, Canis lupus familiaris; set-up: time infinity, dose 30 mg/kg, route oral; conditions: plasma
quantity name: AUC(0-inf) (µM·h)

>>> measured_number("c1ccc2oc(Oc3ccc(OCCN4CCCCC4)cc3)nc2c1")
4.2

* * *

experiment: Cmax in rat at 30 mg/kg, po; type: ADME, organism-based; parameters: dose 30 mg/kg, route oral; conditions: in vivo
quantity name: Cmax (µM)

>>> measured_number("c1ccc2oc(Oc3ccc(OCCN4CCCCC4)cc3)nc2c1")
1.1

* * *

experiment: AUC (0 to infinity) in Beagle dog at 10 mg/kg, po; assay type: ADME, organism-based, Canis lupus familiaris; design: time infinity, dose 10 mg/kg, route oral; details: plasma
quantity name: AUC(0-inf) (µM·h)

>>> measured_number("O=C(CO)NC1CCN(Cc2ccc(Oc3nc4ccccc4s3)cc2)CC1")
60.3

* * *

test: Half life in rat plasma at 2 mg/kg, iv; type: ADME, organism-based; design: dose 2 mg/kg, route intravenous
quantity name: half-life (h)

>>> measured_number("O=C(CO)NC1CCN(Cc2ccc(Oc3nc4ccccc4s3)cc2)CC1")
3.5

* * *

experiment: Bioavailability in rat at 30 mg/kg, po; type: ADME, organism-based; conditions: in vivo
quantity name: bioavailability

>>> result("c1ccc2oc(Oc3ccc(OCCN4CCCCC4)cc3)nc2c1")
"31%"
